- experimental-protocol: basal S. cerevisiae growth modulation, no modifier, primary screen, OD600, strain BY4716, 24 h, basal condition (AID 1173)
- setup-conditions: OD600, 24 h, higher = more signal, called active from +8 up or from −8 down
Label Condition not met if z-score falls below 0.8; label Condition met in every other case.

Hi team, for C[C@H]1C2[C@H](Cc3ccccc3)NC(=O)[C@]23C(=O)NCC(=O)N2CCC[C@H]2C(=O)NC/C=C\C/C=C/C3[C@@H]2O[C@]12C (some centres undefined) , is the recorded z-score at or above 0.8?
Condition not met

Hi team, for CCN(CC)c1ccc(N2CC=CC34O[C@@H]5C=CCOC(=O)[C@@H]5[C@H]3C(=O)N(CCCO)[C@@H]4C2=O)cc1 (some centres undefined) , is the recorded z-score at or above 0.8?
Condition not met

Hi team, for CC=CC(O)C1C=CC2C(=O)N(C)C(=O)C2N1NC(=O)OC(C)(C)C (centres undefined) , is the recorded z-score at or above 0.8?
Condition met

Hi team, for COCCOC(=O)N1C(=O)[C@@]2(c3ccccc31)[C@H](c1ccc(OCCO)cc1)N1[C@H](c3ccccc3)[C@H](c3ccccc3)OC(=O)[C@H]1[C@@H]2C(=O)N1CCN(c2ncccn2)CC1 , is the recorded z-score at or above 0.8?
Condition met

Hi team, for CC(C)N1CC=CC23O[C@@H]4C=CCCOC(=O)C4[C@H]2C(=O)N(CCCCCO)[C@@H]3C1=O (some centres undefined) , is the recorded z-score at or above 0.8?
Condition met

Hi team, for CC(C)CNC(=O)[C@@H]1c2ccccc2C(=O)N(C(C)C)[C@H]1c1ccc(CO)cc1 , is the recorded z-score at or above 0.8?
Condition not met

Hi team, for CCOC(=O)C[C@H]1[C@H](OC(=O)c2ccc(-c3ccccc3)cc2)[C@@H](NC(=O)c2ccc3ccccc3c2)c2cc(OCCCO)ccc2N1C(=O)c1ccccc1 , is the recorded z-score at or above 0.8?
Condition met

Hi team, for O=C1OCCC=C[C@H]2OC34C=CCN(c5ccc(Cl)cc5)C(=O)[C@H]3N(CCO)C(=O)[C@@H]4C12 (some centres undefined) , is the recorded z-score at or above 0.8?
Condition not met

Hi team, for COC(=O)Cn1c(C(=O)N(C)C)cc2c1C[C@H]1CN(C(=O)c3ccccc3)[C@@](Cc3ccc(OC)cc3)(C(=O)OC)[C@@H]21 , is the recorded z-score at or above 0.8?
Condition met
